B1: LINE1-mini (parent)
chain: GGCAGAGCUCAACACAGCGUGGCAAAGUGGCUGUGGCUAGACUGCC

- Variants of: B1
- test-summary: self-cleavage, relative activity (ratio to wild type); higher = more cleavage; in vitro, sequencing; the parent is a self-cleaving ribozyme
Decide by self-cleavage: equal to or exceeding 0.2 means yes (1), less means no (0).

1. GGCAGAGCUAAACACAGCGUGGCAAAGUGCCUGUGGCUAGACUGCC [C10A G30C]    no (0)
2. GGCAGAGCUCAAGAAAGCGUGGCAAAGUGGCUGUGGCUAGACUGCC [C13G C15A]    no (0)
3. GGCAGAGCUCAGCACAGCGUGGCAAACUGGCUGUGGCUAGACUGCC [A12G G27C]    no (0)
4. GGCAGAGCUGAGCACAGCGUGGCAAAGUGGCUGUGGCUAGACUGCC [C10G A12G]    no (0)
5. GACAGAGCUCAACACAGCGUGGCAAAGUGGCUGUGGUUAGACUGCC [G2A C37U]    yes (1)

Reported self-cleavage at or above 0.2? GGCAGAGCUCAACACAGCGUGGCAAAGUGGCUAUGGCUAGACUGCA [G33A C46A] no (0)

Hi team, for GGCAGAGCUCAUCACAGCAUGGCAAAGUGGCUGUGGCUAGACUGCC [A12U G19A] , is the recorded self-cleavage at or above 0.2? yes (1)

Quick check, self-cleavage >= 0.2? GGUAGGGCUCAACACAGCGUGGCAAAGUGGCUGUGGCUAGACUGCC [C3U A6G] no (0)
